assay: clinical; settings: female, human, plasma, po, 7.5 mg, Cmax, mean (% CV), Day 14, 7.5 mg once daily oral, White women
quantity kind: Cmax (ng/mL)
Provide only the numeric value, understood in ng/mL.

Look up Cmax of Clc1ccc2c(c1)CCc1cccnc1C2=C1CCNCC1 and report it. 5.46

* * *

assay: clinical; settings: male, human, plasma, po, 7.5 mg, Cmax, mean (% CV), Day 14, 7.5 mg once daily oral, White men
quantity kind: Cmax (ng/mL)
Provide only the numeric value, understood in ng/mL.

Look up Cmax of Clc1ccc2c(c1)CCc1cccnc1C2=C1CCNCC1 [desloratadine] and report it. 6.05

* * *

experiment: clinical; conditions: male, human, plasma, po, 7.5 mg, t1/2, mean (% CV), Day 14, 7.5 mg once daily oral, White men
quantity kind: half-life (h)
Provide only the numeric value, understood in h.

Look up half-life of Clc1ccc2c(c1)CCc1cccnc1C2=C1CCNCC1 [desloratadine] and report it. 36

Where do the numbers come from? From patent US7405223B2.
